In this section, each of the compounds is paired with its reported IC50.
study system: EGFR (d746-750 C797S) (Homo sapiens, UniProt P00533, C797S/DEL746-750)
Construct: purchased signalchem
Sequence (P00533 with tags, fused parts or gaps DEL746-750/C797S limits assumed): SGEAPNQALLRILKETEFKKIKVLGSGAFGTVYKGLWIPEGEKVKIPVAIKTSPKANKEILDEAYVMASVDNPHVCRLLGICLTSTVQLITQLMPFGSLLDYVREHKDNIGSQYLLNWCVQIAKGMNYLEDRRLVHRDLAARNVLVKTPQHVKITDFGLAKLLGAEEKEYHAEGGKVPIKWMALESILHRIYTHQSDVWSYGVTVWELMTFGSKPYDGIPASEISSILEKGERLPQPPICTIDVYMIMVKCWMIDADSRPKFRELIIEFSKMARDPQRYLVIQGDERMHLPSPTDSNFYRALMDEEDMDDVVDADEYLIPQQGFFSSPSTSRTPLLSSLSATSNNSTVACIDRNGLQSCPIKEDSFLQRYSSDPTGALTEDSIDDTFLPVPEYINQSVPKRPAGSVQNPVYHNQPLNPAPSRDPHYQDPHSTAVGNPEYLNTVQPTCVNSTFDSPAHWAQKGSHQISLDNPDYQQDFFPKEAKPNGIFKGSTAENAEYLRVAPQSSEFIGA
experiment notes: Inhibition of EGFR (d746-750 C797S) biochemical enzymatic activity (HTRF)
recorded conditions: EGFR Del19-C797S, 1 mM ATP, 1 h, room temperature, read-out: IC50 (nM) @Del19-C797S

compound | study system | IC50 (nM)
Cn1ncc2c1OCCN1CC3(CCCC1C3)n1c(nc3ccc(N4CCOCC4)cc31)NC(=O)c1cc-2c(=O)n(C)c1 (centres unmarked) [Example A9] | EGFR (d746-750 C797S) (Homo sapiens, UniProt P00533, C797S/DEL746-750) | 536
CN1CCN(c2ccc3c(c2)nc2n3C34CCC(CN(CCOc5c(cnn5C)-c5cc(cn(C)c5=O)C(=O)N2)C3)C4)CC1 (centres unmarked) [Example A60] | EGFR (d746-750 C797S) (Homo sapiens, UniProt P00533, C797S/DEL746-750) | 18
CCC1CCCOc2c(cnn2C)-c2cc(cn(C)c2=O)C(=O)Nc2nc3ccc(N4CCN(C)CC4)cc3n2C1 (single isomer, unassigned) [Example A16A] | EGFR (d746-750 C797S) (Homo sapiens, UniProt P00533, C797S/DEL746-750) | 152
CN1C2CC1CN(c1ccc3nc4n(c3c1)C13CCC(CN(CCOc5c(cnn5C)-c5cc(cn(C)c5=O)C(=O)N4)C1)C3)C2 (single isomer, unassigned) [Example A98B] | EGFR (d746-750 C797S) (Homo sapiens, UniProt P00533, C797S/DEL746-750) | 1.3
Cn1ncc2c1OCCN1CC3CCC(CC3)(C1)n1c(nc3cc(F)ccc31)NC(=O)c1cc-2c(=O)n(C)c1 [Example A116] | EGFR (d746-750 C797S) (Homo sapiens, UniProt P00533, C797S/DEL746-750) | 474
C[C@@H]1CCCOc2c(cnn2CC(F)(F)F)-c2cc(cn(C)c2=O)C(=O)Nc2nc3ccc(N4CCN(C)CC4)cc3n2C1 [Example A20] | EGFR (d746-750 C797S) (Homo sapiens, UniProt P00533, C797S/DEL746-750) | 42
CN1CCCC12CN(c1ccc3nc4n(c3c1)C13CCC(CN(CCOc5c(cnn5C)-c5cc(cn(C)c5=O)C(=O)N4)C1)C3)C2 (single isomer, unassigned) [Example A76B] | EGFR (d746-750 C797S) (Homo sapiens, UniProt P00533, C797S/DEL746-750) | 3.5
C[C@@H]1CCCOc2c(cnn2C)-c2cc(cn(C)c2=O)C(=O)Nc2nc3ccc(N4CCN(C5COC5)CC4)cc3n2C1 [Example A39] | EGFR (d746-750 C797S) (Homo sapiens, UniProt P00533, C797S/DEL746-750) | 2.8
C[C@@H]1CCCOc2c(cnn2C)-c2cc(cn(C)c2=O)C(=O)Nc2nc3ccc(N4CC(F)(CN(C)C)C4)cc3n2C1 [Example A58] | EGFR (d746-750 C797S) (Homo sapiens, UniProt P00533, C797S/DEL746-750) | 4.9
Cn1ncc2c1OCCN1CC3CCC(C3)(C1)n1c(nc3ccc(N4CC(N5CCOCC5)C4)cc31)NC(=O)c1cc-2c(=O)n(C)c1 (single isomer, unassigned) [Example A69B] | EGFR (d746-750 C797S) (Homo sapiens, UniProt P00533, C797S/DEL746-750) | 1.2
C[C@@H]1CCCOc2c(cnn2C)-c2cc(cn(C)c2=O)C(=O)Nc2nc3ccc(N4CCN(C5CC5)CC4)cc3n2C1 [Example A48] | EGFR (d746-750 C797S) (Homo sapiens, UniProt P00533, C797S/DEL746-750) | 2.1

----------
study system: EGFR Exon19Del/T790M (Homo sapiens, UniProt P00533, DEL746-750/T790M)
Construct: purchased Carna Bio
Sequence (P00533 with tags, fused parts or gaps DEL746-750/T790M limits assumed): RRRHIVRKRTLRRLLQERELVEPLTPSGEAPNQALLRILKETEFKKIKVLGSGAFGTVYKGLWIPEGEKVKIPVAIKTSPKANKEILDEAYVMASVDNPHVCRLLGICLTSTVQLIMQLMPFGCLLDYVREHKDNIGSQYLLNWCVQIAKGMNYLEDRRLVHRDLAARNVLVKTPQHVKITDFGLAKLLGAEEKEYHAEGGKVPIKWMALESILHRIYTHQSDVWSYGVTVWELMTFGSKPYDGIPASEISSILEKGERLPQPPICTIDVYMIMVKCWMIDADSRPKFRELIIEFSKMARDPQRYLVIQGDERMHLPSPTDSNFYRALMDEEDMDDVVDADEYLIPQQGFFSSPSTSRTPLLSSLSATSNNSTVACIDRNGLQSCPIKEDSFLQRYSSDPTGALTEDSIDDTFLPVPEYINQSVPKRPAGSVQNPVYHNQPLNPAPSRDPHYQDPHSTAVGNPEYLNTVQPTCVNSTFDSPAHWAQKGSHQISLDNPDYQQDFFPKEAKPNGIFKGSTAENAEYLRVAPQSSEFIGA
experiment notes: Inhibition of EGFR Exon19Del/T790M biochemical enzymatic activity (HTRF)
recorded conditions: EGFR Del19-T790M, 1 mM ATP, 1 h, room temperature, read-out: IC50 (nM) @Del19-T790M
Catalogue of IC50 values

compound | study system | reported relation | IC50 / nM
CN1CCC2(C1)CN(c1ccc3nc4n(c3c1)C13CCC(CN(CCOc5c(cnn5C)-c5cc(cn(C)c5=O)C(=O)N4)C1)C3)C2 (single isomer, unassigned) [Example A78B] | EGFR Exon19Del/T790M (Homo sapiens, UniProt P00533, DEL746-750/T790M) | = | 2.7
CN(C)C1CN(c2ccc3nc4n(c3c2)C23CCC(CN(CCOc5c(cnn5C)-c5cc(cn(C)c5=O)C(=O)N4)C2)C3)CC1F (single isomer, unassigned) [Example A84C] | EGFR Exon19Del/T790M (Homo sapiens, UniProt P00533, DEL746-750/T790M) | = | 3.4
CN1CCN(C2CCN(c3ccc4nc5n(c4c3)C34CCC(CN(CCOc6c(cnn6C)-c6cc(cn(C)c6=O)C(=O)N5)C3)C4)C2)CC1 (single isomer, unassigned) [Example A80B1] | EGFR Exon19Del/T790M (Homo sapiens, UniProt P00533, DEL746-750/T790M) | = | 6.2
C[C@@H]1CCCOc2c(cnn2C)-c2cc(cn(C)c2=O)C(=O)Nc2nc3ccc(N4CCC5(CN(C)C5)C4)cc3n2C1 | EGFR Exon19Del/T790M (Homo sapiens, UniProt P00533, DEL746-750/T790M) | = | 3.7
CN1CC2CN(c3ccc4nc5n(c4c3)C34CCC(CC3)CN(CCOc3c(cnn3C)-c3cc(cn(C)c3=O)C(=O)N5)C4)CC2C1 (stereo not shown) | EGFR Exon19Del/T790M (Homo sapiens, UniProt P00533, DEL746-750/T790M) | = | 12
CN1CCN(c2ccc3c(c2)nc2n3C34CCC(CN(CCOc5c(cnn5C)-c5cc(cn(C)c5=O)C(=O)N2)C3)C4)CC1 (stereo not shown) [Example A60B] | EGFR Exon19Del/T790M (Homo sapiens, UniProt P00533, DEL746-750/T790M) | = | 0.82
Cn1ncc2c1OCCN1CC3CCC(C3)(C1)n1c(nc3ccc(N4CCOCC4)cc31)NC(=O)c1cc-2c(=O)n(C)c1 (single isomer, unassigned) [Example A62B] | EGFR Exon19Del/T790M (Homo sapiens, UniProt P00533, DEL746-750/T790M) | = | 2.8
Cn1ncc2c1OCCN1CC3CCC(C3)(C1)n1c(nc3ccc(N4CCOCC4)cc31)NC(=O)c1cc-2c(=O)n(C)c1 (stereo not shown) [Example A62] | EGFR Exon19Del/T790M (Homo sapiens, UniProt P00533, DEL746-750/T790M) | = | 6.2
Cn1ncc2c1OCCN1CC3CCC(CC3)(C1)n1c(nc3ccc(N4CCN(C5CC5)CC4)cc31)NC(=O)c1cc-2c(=O)n(C)c1 | EGFR Exon19Del/T790M (Homo sapiens, UniProt P00533, DEL746-750/T790M) | = | 8
C[C@@H]1CCCOc2c(cnn2C)-c2cc(cn(C)c2=O)C(=O)Nc2nc3ccc(N4CC(N5CCN(C)CC5)C4)cc3n2C1 | EGFR Exon19Del/T790M (Homo sapiens, UniProt P00533, DEL746-750/T790M) | = | 4.1
COCCN(C)c1ccc2nc3n(c2c1)C12CCC(CN(CCOc4c(cnn4C)-c4cc(cn(C)c4=O)C(=O)N3)C1)C2 (single isomer, unassigned) [Example A90B] | EGFR Exon19Del/T790M (Homo sapiens, UniProt P00533, DEL746-750/T790M) | = | 5.9
CCN1CCN(c2ccc3nc4n(c3c2)C[C@H](C)CCCOc2c(cnn2C)-c2cc(cn(C)c2=O)C(=O)N4)CC1 | EGFR Exon19Del/T790M (Homo sapiens, UniProt P00533, DEL746-750/T790M) | = | 6
C[C@@H]1CCCOc2c(cnn2C)-c2cc(cn(C)c2=O)C(=O)Nc2nc3ccc(N4CCC(N5CCN(C)CC5)CC4)cc3n2C1 | EGFR Exon19Del/T790M (Homo sapiens, UniProt P00533, DEL746-750/T790M) | = | 7.6
CN(C)CCCN(C)c1ccc2nc3n(c2c1)C12CCC(CC1)CN(CCOc1c(cnn1C)-c1cc(cn(C)c1=O)C(=O)N3)C2 | EGFR Exon19Del/T790M (Homo sapiens, UniProt P00533, DEL746-750/T790M) | = | 18
CN(C)CCN(C)c1ccc2nc3n(c2c1)C12CCC(CN(CCOc4c(cnn4C)-c4cc(cn(C)c4=O)C(=O)N3)C1)C2 (single isomer, unassigned) [Example A85B] | EGFR Exon19Del/T790M (Homo sapiens, UniProt P00533, DEL746-750/T790M) | = | 2.2
CN1C2CC1CN(c1ccc3nc4n(c3c1)C13CCC(CN(CCOc5c(cnn5C)-c5cc(cn(C)c5=O)C(=O)N4)C1)C3)C2 (single isomer, unassigned) [Example A98B] | EGFR Exon19Del/T790M (Homo sapiens, UniProt P00533, DEL746-750/T790M) | = | 2.9
CN(C)CCC1CN(c2ccc3nc4n(c3c2)C23CCC(CN(CCOc5c(cnn5C)-c5cc(cn(C)c5=O)C(=O)N4)C2)C3)C1 (single isomer, unassigned) [Example A95A] | EGFR Exon19Del/T790M (Homo sapiens, UniProt P00533, DEL746-750/T790M) | > | 5000
Cn1ncc2c1OCCN1CC3CCC(C3)(C1)n1c(nc3ccc(N4CCC(N5CC(F)C5)CC4)cc31)NC(=O)c1cc-2c(=O)n(C)c1 (single isomer, unassigned) [Example A87A] | EGFR Exon19Del/T790M (Homo sapiens, UniProt P00533, DEL746-750/T790M) | > | 5000
C[C@@H]1CCCOc2c(cnn2C)-c2cc(cn(C)c2=O)C(=O)Nc2nc3ccc(Br)cc3n2C1 | EGFR Exon19Del/T790M (Homo sapiens, UniProt P00533, DEL746-750/T790M) | = | 27
